Origin of measurements: patent US20130078247A1

- ASSAY_TARGET: T1, human DLL4, full length, overexpressed on CHO or HEK293 cells (human, UniProt Q9NR61 27-685)
- T1 construct: also called CHO-hDLL4; CHO-hDII4
- PROCEDURE_SUMMARY: periplasmic extract; FMAT, Notch1/Fc on CHO-hDLL4
ENDPOINT_NAME: % inhibition (%)
Kindly answer with a numeric value in %, unit omitted.

Record request: % inhibition value, item DLLBII104C04 (VHH, also called DLLBII104C4; not shown: C-terminal c-myc and His6 tags) VHH: EVQLVESGGGLVQAGGSLRLSCAAAGSTFSSYVMGWYRQAPGKQRELVAHISTRGITYYADSVKGRFTISRDNAKNTMYLQMNSLKPEDTAVYYCNTRRNFLSNYWGQGTQVTVSS
87

Entry DLLBII61F07 (VHH, also called DLLBII61F7; not shown: C-terminal c-myc and His6 tags) VHH: EVQLVESGGGLVQAGGSLRLSCAASGRTFSRYAMGWFRQAPGKEREFVAAINWSGGSTYYADSVKGRFTISRDNAKNTVYLQMNSLKPEDTAVYDCAASNYYSVYDDRPVMDYWGQGTQVTVSS : reported % inhibition = ?
79

Endpoint output: % inhibition of DLLBII101H09 (VHH, also called DLLBII101H9; DLL1BII101H09; not shown: C-terminal c-myc and His6 tags) VHH: EVQLVESGGGLVQPGGSLRLSCAASGFTLGYYTIVWFRQAPGKERKGVSCISSRDGSRYYADSVKGRFTISRDNAKNTVYLRMNSLKPEDTAVYYCAAGPDCSSYDYWGQGTQVTVSS . Value?
87

Name the recorded % inhibition for DLLBII102F08 (VHH, also called DLLBII102F8; not shown: C-terminal c-myc and His6 tags) VHH: EVQLVESGGGLVQTGDSLRLSCAASGSTFSNYRMGWFRQGPGKEREFVAAIGRNGQNTYYTDSVKGRFTVTRDNAKNMVYLQMNSLKPEDSAVYTCAASLRGWDTTRIDYEYWGQGTQVTVSS .
85

For DLLBII104A03 (VHH, also called DLLBII104A3; not shown: C-terminal c-myc and His6 tags) VHH: EVQLVESGGGLVQAGGSLRLSCAASGDIPRIAAMGWYRQAPGKQRELVATVSNAATTRYADSAKGRFTISRDNAKTVSLQMDNLKPEDTGVYYCYSLATTVTPSWVNYWGQGTQVTVSS , what is its reported % inhibition?
86

Value lookup for % inhibition; key = DLLBII95F02 (VHH, also called DLLBII95F2; not shown: C-terminal c-myc and His6 tags) VHH: EVQLVESGGGSVQAGGSLRLSCAASGRTFSSYAMGWFRQAPGKEREFVAAINWSGGYTYYADSVRGRFTISRDNAKNTVYLQMNSLKPEDTAVYYCAAPAPGSSGYEYDYWGQGTQVTVSS
81

Return reported % inhibition; argument: DLLBII101G08 (VHH, also called 101G8; DLLBII101G8; not shown: C-terminal c-myc and His6 tags) VHH: EVQLVESGGGLVQAGGSLRLSCAASGRTFSSYAMAWFRQAPGKEREFVAAIRWSGGTAYYADSVQGRFTISRDNAKNTVYLQMNSLKPEDTAVYYCANRAADTRLGPYEYDYWGQGTQVTVSS
91

Value lookup for % inhibition; key = DLLBII101F01 (VHH, also called DLLBII101F1; not shown: C-terminal c-myc and His6 tags) VHH: EVQLVESGGGLVQAGGSLRLSCAASGRTFSNYAMGWFRQAPGKEREFVAAISWSGGDTYYADSVKGRFTISRDNAKNTVCLQMNSLKPEDTAVYYCAASFQSGAAPGANFYDYWGQGTQVTVSS
85
